# experimentDescription: activity coefficient (dimensionless); of the first substance listed, at infinite dilution; xn = mol fraction of the nth substance listed
# testConditions: 358.15 K; 101.33 kPa; Liquid; Chromatography; x1 = 0
Record satisfied whenever activity coefficient is at 10 or higher; record not satisfied when lower.

Can CC#N [acetonitrile] + N#C[N-]C#N.OCCC[n+]1ccccc1 be said to have activity coefficient at or above 10?
not satisfied

Note, next up: C#CCCC [1-pentyne] + N#C[N-]C#N.OCCC[n+]1ccccc1
satisfied

Note, next up: CC(C)(C)O [2-methylpropan-2-ol] + N#C[N-]C#N.OCCC[n+]1ccccc1
not satisfied

---

Entries annotated with measured activity coefficient
# experimentDescription: activity coefficient (dimensionless); of the first substance listed, at infinite dilution; xn = mol fraction of the nth substance listed
# testConditions: 368.15 K; 101.33 kPa; Liquid; Chromatography; x1 = 0
API note: the answer field is a bare number with no unit suffix.

Given CCOC(C)=O [ethyl acetate] + N#C[N-]C#N.OCCC[n+]1ccccc1 , state its recorded activity coefficient.
7.43

Note, next up: CCOC(C)(C)C [2-ethoxy-2-methylpropane] + N#C[N-]C#N.OCCC[n+]1ccccc1
77.9

Note, next up: CCc1ccccc1 [ethylbenzene] + N#C[N-]C#N.OCCC[n+]1ccccc1
17.7

Note, next up: Cc1ccccc1C [1,2-dimethylbenzene] + N#C[N-]C#N.OCCC[n+]1ccccc1
13

Note, next up: CCCC=O [butanal] + N#C[N-]C#N.OCCC[n+]1ccccc1
4.57

---

Entries annotated with measured activity coefficient
# experimentDescription: activity coefficient (dimensionless); of the first substance listed, at infinite dilution; xn = mol fraction of the nth substance listed
# testConditions: 298.15 K; 101.33 kPa; Liquid; Chromatography; x1 = 0
API note: the answer field is a bare number with no unit suffix.

Given C=CCCCCC [1-heptene] + N#C[N-]C#N.OCCC[n+]1ccccc1 , state its recorded activity coefficient.
223

Note, next up: CCCCCCC [heptane] + N#C[N-]C#N.OCCC[n+]1ccccc1
582

Note, next up: C1=CCCCC1 [cyclohexene] + N#C[N-]C#N.OCCC[n+]1ccccc1
38.7

Note, next up: C1CCCCCCC1 [cyclooctane] + N#C[N-]C#N.OCCC[n+]1ccccc1
231

Note, next up: CCC(C)CC [3-methylpentane] + N#C[N-]C#N.OCCC[n+]1ccccc1
321

Further cases:
Given CC1CCCCC1 [methylcyclohexane] + N#C[N-]C#N.OCCC[n+]1ccccc1 , state its recorded activity coefficient.
210

Note, next up: C=CCCC [1-pentene] + N#C[N-]C#N.OCCC[n+]1ccccc1
74.6

---

# experimentDescription: activity coefficient (dimensionless); of the first substance listed, at infinite dilution; xn = mol fraction of the nth substance listed
# testConditions: 348.15 K; 101.33 kPa; Liquid; Chromatography; x1 = 0
Entries annotated with measured activity coefficient
API note: the answer field is a bare number with no unit suffix.

Consider the reported activity coefficient for these compounds:
Given CCCCCO [pentan-1-ol] + N#C[N-]C#N.OCCC[n+]1ccccc1 , state its recorded activity coefficient.
4.74

Note, next up: C1CCCC1 [cyclopentane] + N#C[N-]C#N.OCCC[n+]1ccccc1
52.7

Note, next up: COC(C)=O [methyl ethanoate] + N#C[N-]C#N.OCCC[n+]1ccccc1
3.71

Note, next up: C=Cc1ccccc1 [styrene] + N#C[N-]C#N.OCCC[n+]1ccccc1
7.79

Note, next up: CCCOCCC [dipropyl ether] + N#C[N-]C#N.OCCC[n+]1ccccc1
84.2

Note, next up: C=CCCCC [hex-1-ene] + N#C[N-]C#N.OCCC[n+]1ccccc1
107

Note, next up: CCC(C)O (stereo not given) [butan-2-ol] + N#C[N-]C#N.OCCC[n+]1ccccc1
3.09

Note, next up: CCCCCCCC [octane] + N#C[N-]C#N.OCCC[n+]1ccccc1
605

Note, next up: CCCCCCC [heptane] + N#C[N-]C#N.OCCC[n+]1ccccc1
377

// next entry
Given CCCCO [butan-1-ol] + N#C[N-]C#N.OCCC[n+]1ccccc1 , state its recorded activity coefficient.
3.13

---

Entries annotated with measured activity coefficient
# experimentDescription: activity coefficient (dimensionless); of the first substance listed, at infinite dilution; xn = mol fraction of the nth substance listed
# testConditions: 328.15 K; 101.33 kPa; Liquid; Chromatography; x1 = 0
API note: the answer field is a bare number with no unit suffix.

Given C1CCOC1 [tetrahydrofuran] + N#C[N-]C#N.OCCC[n+]1ccccc1 , state its recorded activity coefficient.
3.25

Note, next up: CCCC(C)=O [pentan-2-one] + N#C[N-]C#N.OCCC[n+]1ccccc1
5.77

Note, next up: CCCCCO [pentan-1-ol] + N#C[N-]C#N.OCCC[n+]1ccccc1
4.89

Note, next up: CCC(=O)CC [pentan-3-one] + N#C[N-]C#N.OCCC[n+]1ccccc1
5.92

Note, next up: CCC(=O)OC [methyl propanoate] + N#C[N-]C#N.OCCC[n+]1ccccc1
5.99

Further cases:
Given CCCc1ccccc1 [propylbenzene] + N#C[N-]C#N.OCCC[n+]1ccccc1 , state its recorded activity coefficient.
30.8

Note, next up: CC(C)=O [acetone] + N#C[N-]C#N.OCCC[n+]1ccccc1
1.97

Note, next up: O [water] + N#C[N-]C#N.OCCC[n+]1ccccc1
0.399

Note, next up: C1CCCCC1 [cyclohexane] + N#C[N-]C#N.OCCC[n+]1ccccc1
99.8

Note, next up: CCCCCCC [heptane] + N#C[N-]C#N.OCCC[n+]1ccccc1
441

Note, next up: CCCCCC [hexane] + N#C[N-]C#N.OCCC[n+]1ccccc1
269

Note, next up: CC(C)OC(C)C [diisopropyl ether] + N#C[N-]C#N.OCCC[n+]1ccccc1
102

Note, next up: CCCO [propan-1-ol] + N#C[N-]C#N.OCCC[n+]1ccccc1
2.03

Note, next up: CC#N [acetonitrile] + N#C[N-]C#N.OCCC[n+]1ccccc1
1.29

Note, next up: CCCC(=O)OC [methyl butanoate] + N#C[N-]C#N.OCCC[n+]1ccccc1
10.6

Note, next up: C#CCCC [1-pentyne] + N#C[N-]C#N.OCCC[n+]1ccccc1
12.6

Note, next up: C=CCCCC [hex-1-ene] + N#C[N-]C#N.OCCC[n+]1ccccc1
115

Note, next up: C=CCCCCCC [oct-1-ene] + N#C[N-]C#N.OCCC[n+]1ccccc1
326

Note, next up: CCOCC [diethyl ether] + N#C[N-]C#N.OCCC[n+]1ccccc1
21.5

Note, next up: CCOC(C)=O [ethyl acetate] + N#C[N-]C#N.OCCC[n+]1ccccc1
6.6

---

# experimentDescription: activity coefficient (dimensionless); of the first substance listed, at infinite dilution; xn = mol fraction of the nth substance listed
# testConditions: 318.15 K; 101.33 kPa; Liquid; Chromatography; x1 = 0
Group membership follows activity coefficient per the scheme bucket A: < 7; bucket B: ≥ 7 and < 90; bucket C: ≥ 90

Returns: class label. Input: CCOCC [diethyl ether] + N#C[N-]C#N.OCCC[n+]1ccccc1
bucket B

Note, next up: Cc1ccccc1C [1,2-dimethylbenzene] + N#C[N-]C#N.OCCC[n+]1ccccc1
bucket B

Note, next up: Cc1ccccc1 [toluene] + N#C[N-]C#N.OCCC[n+]1ccccc1
bucket B

Note, next up: C=CCCCC [hex-1-ene] + N#C[N-]C#N.OCCC[n+]1ccccc1
bucket C

Note, next up: CO [methanol] + N#C[N-]C#N.OCCC[n+]1ccccc1
bucket A

Next:
Returns: class label. Input: C1CCOC1 [tetrahydrofuran] + N#C[N-]C#N.OCCC[n+]1ccccc1
bucket A

---

Entries annotated with measured activity coefficient
# experimentDescription: activity coefficient (dimensionless); of the first substance listed, at infinite dilution; xn = mol fraction of the nth substance listed
# testConditions: 318.15 K; 101.33 kPa; Liquid; Chromatography; x1 = 0
API note: the answer field is a bare number with no unit suffix.

Consider the reported activity coefficient for these molecules:
Given CCCC=O [butanal] + N#C[N-]C#N.OCCC[n+]1ccccc1 , state its recorded activity coefficient.
4.09

Note, next up: COC(C)(C)C [2-methoxy-2-methylpropane] + N#C[N-]C#N.OCCC[n+]1ccccc1
25.1

Note, next up: C1CCCCC1 [cyclohexane] + N#C[N-]C#N.OCCC[n+]1ccccc1
105

Note, next up: CCC(=O)CC [pentan-3-one] + N#C[N-]C#N.OCCC[n+]1ccccc1
5.68

Note, next up: C#CCCCC [1-hexyne] + N#C[N-]C#N.OCCC[n+]1ccccc1
21.5

Note, next up: CCCCCC [hexane] + N#C[N-]C#N.OCCC[n+]1ccccc1
296

Further cases:
Given CCCCCCCC [octane] + N#C[N-]C#N.OCCC[n+]1ccccc1 , state its recorded activity coefficient.
772

Note, next up: CCC(C)CC [3-methylpentane] + N#C[N-]C#N.OCCC[n+]1ccccc1
286

Note, next up: CCCCO [butan-1-ol] + N#C[N-]C#N.OCCC[n+]1ccccc1
3.29

Note, next up: C#CCCC [1-pentyne] + N#C[N-]C#N.OCCC[n+]1ccccc1
12.1

The measured values listed here are drawn from the NIST ThermoML archive (doi:10.1016/j.jct.2017.03.004).
